Source of measurements: patent US7488730B2

# target: 5-HT7 receptor (Cavia porcellus)
# Sequence (P50407 whole entry): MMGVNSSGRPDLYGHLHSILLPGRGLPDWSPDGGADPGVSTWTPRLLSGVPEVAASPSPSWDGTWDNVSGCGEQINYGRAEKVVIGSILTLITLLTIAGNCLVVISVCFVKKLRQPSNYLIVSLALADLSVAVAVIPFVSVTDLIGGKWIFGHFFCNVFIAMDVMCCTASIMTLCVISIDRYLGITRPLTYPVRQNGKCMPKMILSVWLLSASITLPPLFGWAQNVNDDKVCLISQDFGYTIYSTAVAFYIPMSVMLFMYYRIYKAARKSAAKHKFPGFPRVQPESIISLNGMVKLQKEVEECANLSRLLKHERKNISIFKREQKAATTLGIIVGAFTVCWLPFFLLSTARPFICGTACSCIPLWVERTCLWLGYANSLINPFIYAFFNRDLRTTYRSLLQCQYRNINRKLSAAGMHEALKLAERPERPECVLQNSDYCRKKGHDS
# measurement-notes: Isolated guinea-pig ileum assay: relaxation of substance P-induced contraction
# settings: vs SB-269970; p value in parentheses
Recorded Schild plot for the following compounds

compound="CSc1ccccc1N1CCN(CCCCCC(=O)NC2CCCc3ccccc32)CC1 (centres unmarked)" reported_metric="Schild plot" value="0.9 (p < 0.0001)"
compound="CC(=O)c1ccccc1N1CCN(CCCCCC(=O)NC2CCCc3ccccc32)CC1 (centres unmarked)" reported_metric="Schild plot" value="1.3 (p < 0.0001)"
compound="COc1ccccc1N1CCN(CCCCCC(=O)NC2CCCc3ccccc32)CC1 (centres unmarked)" reported_metric="Schild plot" value="1.0 (p < 0.0001)"
compound="Cc1ccccc1N1CCN(CCCCCC(=O)NC2CCCc3ccccc32)CC1 (centres unmarked)" reported_metric="Schild plot" value="0.9 (p < 0.0001)"

What Schild plot value was documented for this compound, O=C(CCCCCN1CCN(c2ccccc2O)CC1)NC1CCCc2ccccc21 (centres unmarked) ? 1.6 (p < 0.005)
